experimental-system: (CUG) loop RNA (SEQ ID NO:11)
test-protocol: Filter binding assay (FBA), SEQ ID NO:11
Kd values for the molecules below.

compound-structure-string	Kd
CCc1nc2ccccc2cc1C(=O)N[C@@H](CC(N)=O)C(=O)N[C@@H](CSSC[C@H](NC(=O)[C@@H]1CCCN1C(=O)c1cc2ccccc2nc1CC)C(=O)N[C@@H](CCCCN)C(=O)NCCCN)C(=O)N[C@@H](CCCCN)C(=O)NCCCN	4.6 µM
CCc1nc2ccccc2cc1C(=O)N1CCC[C@H]1C(=O)N[C@@H](CSSC[C@H](NC(=O)[C@@H]1CCCN1C(=O)c1ccc2c(c1)OCO2)C(=O)N[C@@H](CCCCN)C(=O)NCCCN)C(=O)N[C@@H](CCCCN)C(=O)NCCCN	6 µM
NCCCC[C@H](NC(=O)[C@H](CSSC[C@H](NC(=O)[C@@H]1CCCN1C(=O)c1ccc2c(c1)OCO2)C(=O)N[C@@H](CCCCN)C(=O)NCCCN)NC(=O)[C@@H]1CCCN1C(=O)c1ccc2c(c1)OCO2)C(=O)NCCCN	7.5 µM
CCc1nc2ccccc2cc1C(=O)N1CCC[C@H]1C(=O)N[C@@H](CSSC[C@H](NC(=O)[C@@H]1CCCN1C(=O)c1cc2ccccc2nc1CC)C(=O)N[C@@H](CCCCN)C(=O)NCCCN)C(=O)N[C@@H](CCCCN)C(=O)NCCCN	8.5 µM

###

experimental-system: (CUG)/(CAG) complimentary RNA (SEQ ID NO:10)
test-protocol: Filter binding assay (FBA), SEQ ID NO:10
Procedure: A filter binding assay system was utilized to provide a rapid initial assessment of binding affinity. All binding studies were performed in PBS pH 7.2+1 mM MgCl2 at 22° C. Various concentrations of small molecules were incubated with 10 nM FAM-labeled RNA in a total volume of 50 μl for 20 minutes. […] Densitometric analysis of the ratio of labeled RNA on the nitrocellulose to nylon filters allows quantification of binding (FIG. 15A). […]
pKd: −log10 of the molar value.
Below, each entry is listed with its recorded pKd.

compound-structure-string	inequality-sign	pKd
CCc1nc2ccccc2cc1C(=O)N1CCC[C@H]1C(=O)N[C@@H](CSSC[C@H](NC(=O)[C@@H]1CCCN1C(=O)c1cc2ccccc2nc1CC)C(=O)N[C@@H](CCCCN)C(=O)NCCCN)C(=O)N[C@@H](CCCCN)C(=O)NCCCN	<	4.40
CCc1nc2ccccc2cc1C(=O)N1CCC[C@H]1C(=O)N[C@@H](CSSC[C@H](NC(=O)[C@@H]1CCCN1C(=O)c1ccc2c(c1)OCO2)C(=O)N[C@@H](CCCCN)C(=O)NCCCN)C(=O)N[C@@H](CCCCN)C(=O)NCCCN	=	4.68
NCCCC[C@H](NC(=O)[C@H](CSSC[C@H](NC(=O)[C@@H]1CCCN1C(=O)c1ccc2c(c1)OCO2)C(=O)N[C@@H](CCCCN)C(=O)NCCCN)NC(=O)[C@@H]1CCCN1C(=O)c1ccc2c(c1)OCO2)C(=O)NCCCN	=	4.68
CCc1nc2ccccc2cc1C(=O)N[C@@H](CC(N)=O)C(=O)N[C@@H](CSSC[C@H](NC(=O)[C@@H]1CCCN1C(=O)c1cc2ccccc2nc1CC)C(=O)N[C@@H](CCCCN)C(=O)NCCCN)C(=O)N[C@@H](CCCCN)C(=O)NCCCN	=	4.71
